FYI, the data here is from ChEMBL document CHEMBL1201862.

Test system: Malme-3M
assay.comment: NCI tumour cell line growth inhibition, 48 h
Activity calls are given as the source filed them. Cut-off read from the data, not from the text of the source: active = GI50 up to about 1.1 µM and inactive = higher.
measured.parameter: GI50

Before answering, review these 4 worked examples.
compound	GI50
C=C1CC(Cn2cc(C)c(=O)[nH]c2=O)(c2ccc(Cl)cc2)OC1=O (stereo not given)	1.88 µM (inactive)
COc1cccc2c3cccc(OC)c3c3[nH]cnc3c12	3.88 µM (inactive)
Nc1c(-c2ccc(Cl)cc2)[n+]([O-])c2ccccc2[n+]1[O-]	> 100 µM (inactive)
O=[N+]([O-])c1ccc(C(c2c[nH]c3ccccc23)c2c[nH]c3ccccc23)cc1	15.5 µM (inactive)

# ---- query compound ----
Query COc1ccc(/C=C/C=C2C(=O)NC(=S)NC2=O)cc1 yields GI50 of 3.34 µM (inactive)

---

GI50 listing for selected molecules.
System: TK-10
assay.comment: NCI tumour cell line growth inhibition, 48 h
Calls of active or inactive are those of the source. Rule as the data show it: active = GI50 up to about 1.1 µM and inactive = higher.

Documented GI50 of Cc1ccc(CC2(OCCN(C)C)CCC(C(C)(C)C)CC2)cc1 (centres undefined) : 4.47 µM (inactive)

Looking up c1ccc(/N=C2\c3ccsc3/C(=N/c3ccccc3)c3ccsc32)cc1 , I found its GI50 recorded as 5.6 µM (inactive)

Noted for CN(C)c1ccc(C(C#N)NNC(=O)Cc2ccccc2)cc1 (centres undefined) : its GI50 reads > 100 µM (inactive)

Entry CCOC(=O)c1cnc2c(ccc3ncccc32)c1OCC ; GI50 = 60.5 µM (inactive)

---

Test system: MDA-MB-231
assay.comment: NCI tumour cell line growth inhibition, 48 h
Active and inactive are the calls of the source. Cut-off read from the data, not from the text of the source: active = GI50 up to about 1.1 µM and inactive = higher.
GI50 by entry:

Below: 4 compounds and their reported GI50.
compound	GI50
N#C/C(=C\c1ccc(F)cc1)c1nc(-c2cc3ccccc3oc2=O)cs1	12.7 µM (inactive)
CN(C)c1ccc(C(N)=O)cn1	> 100 µM (inactive)
COc1ccc(C(CC(C)=O)c2c(O)c3ccccc3oc2=O)cc1OC (centres undefined)	> 100 µM (inactive)
Cc1cc(C)c2c(c1)C(=O)C1(C2)Cc2c(ccc(C)c2C)C1=O (centres undefined)	> 100 µM (inactive)

Entry C=C1C(=O)O[C@H]2C3C(=C(C)CC[C@@H]12)C(=O)[C@@H]1OC31C (some centres undefined) , GI50 reported as 3.94 µM (inactive)

The compound listed as CCCCCC/C=C\CCCCCCCCCc1c(O)c(OC)cc(O)c1CN(C)C has a reported GI50 of 14.5 µM (inactive)

---

Test system: HT-29
assay.comment: NCI tumour cell line growth inhibition, 48 h
Activity calls are given as the source filed them. Cut-off read from the data, not from the text of the source: active = GI50 up to about 1.1 µM and inactive = higher.
Reply using exactly one outcome from class 1 for active, class 0 for inactive

compound	target.of.assay	label.value
CC(C)(c1ccccc1)c1ccc(OC#N)cc1	HT-29	class 0
Nc1nc(Cl)c(/C=N\O)c(NCC2(CO)CCC2)n1	HT-29	class 0
CC(C)c1cccc2sc(NC(=O)C(=O)CC(=O)c3ccc(F)cc3)nc12	HT-29	class 0
CCCNC1=C2CC(C)CC(OC)[C@@H](O)[C@H](C)/C=C(\C)C(OC(N)=O)C(OC)/C=C\C=C(/C)C(=O)NC(=CC1=O)C2=O (stereo partly specified)	HT-29	class 1
O=C(NCc1cccnc1)NCc1cccnc1	HT-29	class 0

Consider the additional compound presented here.
(Q) Which outcome was assigned to CN(C)c1ccc(C(C#N)NNC(=O)Cc2ccccc2)cc1 (stereo unspecified) in this test?
(A) class 0

---

System: NCI/ADR-RES
assay.comment: NCI tumour cell line growth inhibition, 48 h
Activity calls are given as the source filed them. Cut-off read from the data, not from the text of the source: active = GI50 up to about 1.1 µM and inactive = higher.
Listed compounds paired with reported GI50

compound	GI50
Nc1ncnc2c1ncn2C1OC(CO)C(O)C1N (stereo not given)	> 100 µM (inactive)
O/N=N/c1ccc([SH2]c2ccc3ccccc3c2)cn1	19.1 µM (inactive)

The recorded GI50 for c1ccc2c(c1)[C@@H]1O[C@@H]1[C@@]13O[C@@]21[C@H]1O[C@H]1c1ccccc13 is 16.3 µM (inactive)

# GI50 (compound: CCN(CC)CCNc1ccc2nnn3c4ccc(OC(C)=O)cc4c(=O)c1c23 ) is 4.45 µM (inactive)

Measured GI50, Cn1c2ccccc2c(=NNc2ccc(S(N)(=O)=O)cc2)c2ccccc21 : 14.1 µM (inactive)

---

Quick reference for GI50 among some molecules
Test system: DU-145
assay.comment: NCI tumour cell line growth inhibition, 48 h
Calls of active or inactive are those of the source. Rule as the data show it: active = GI50 up to about 1.1 µM and inactive = higher.

Take a look at these entries with their results.
molecule	measured.parameter	result
CC(C)=NN/C=N\C(C#N)=C(/N)C#N	GI50	> 100 µM (inactive)
O/N=N/c1ccc([SH2]c2ccc3ccccc3c2)cn1	GI50	17.1 µM (inactive)
COc1ccc(/C=C/C=C2C(=O)NC(=S)NC2=O)cc1	GI50	6.03 µM (inactive)
CC(/C=C/C=C/C=C/C=C/C=C/C(=O)C1=C(O)C(CCC(=O)O)N(C)C1=O)=C\C(C)C(OC1CC(O)C(O)C(C)O1)C(C)C (stereo unspecified)	GI50	3.42 µM (inactive)
Cc1cc(C)nc(SC(C)C(=O)N/N=C/c2ccc(OCc3ccccc3)cc2)n1 (stereo unspecified)	GI50	37.7 µM (inactive)

So, O=C(Oc1ccc(OC(Oc2ccccc2)c2ccccc2)cc1)c1ccccc1 (stereo unspecified) ? Its GI50 was > 31.6 µM (inactive)

---

System: UACC-257
assay.comment: NCI tumour cell line growth inhibition, 48 h
The source made the active and inactive calls. Rule as the data show it: active = GI50 up to about 1.1 µM and inactive = higher.
// allowed return values: 1 for active, 0 for inactive

As a guide, the following entries are already answered.
molecule	label.value
Cc1nc(N)sc1C(=O)/C=C\c1ccc2c(c1)OCO2	0
CCCNC1=C2CC(C)CC(OC)[C@@H](O)[C@H](C)/C=C(\C)C(OC(N)=O)C(OC)/C=C\C=C(/C)C(=O)NC(=CC1=O)C2=O (some centres undefined)	1
NC1=NC2=C(CCCC2)C(c2cccs2)S1 (centres undefined)	0
N#CC(NC12CC3CC(CC(C3)C1)C2)c1ccc2c(c1)OCO2 (centres undefined)	0
c1ccc2c3nnc(c2c1)SCCCSc1nnc(c2ccccc12)SCCCS3	0
Cc1cc(=O)n2c(cc3cccccc32)n1	0
COc1ccc([C@@H]2C[C@@H]3C(=O)OC(=O)[C@@H]3c3c2c2ccccc2n3C)cc1	0
O=c1c2ccc(S(=O)(=O)c3ccc4c(=O)n5c6ccccc6nc5c5cccc3c45)c3cccc(c32)c2nc3ccccc3n12	0
CC1=C(c2cc(C(=O)Nc3ccc(Cl)cc3)nc(S)n2)Sc2ccccc2N1	0
C=C1C2Oc3ccccc3C1N(c1ccccc1)O2 (centres undefined)	0

(Q) Test call for this molecule, please: CC(C)(C)OC(=O)NCC(=O)NC1CC=CCC1NC(=O)CNC(=O)OC(C)(C)C (centres undefined)
(A) 0

(Q) Given CC(C)=NN/C=N\C(C#N)=C(/N)C#N , state the outcome it received in this test.
(A) 0

(Q) Please state the recorded outcome for this molecule: Cc1cc(C)c(S(=O)(=O)N(CCCN)OCCCN)c(C)c1
(A) 0

(Q) Hi, do you know how CCC(=O)NCCc1c2c3c(ccnc3c3ncsc13)-c1ccccc1N2 came out in this test?
(A) 0

(Q) Which outcome was entered for the molecule Nc1nc2c(ncn2Cc2ccccc2CO)c(=O)[nH]1 in this test?
(A) 0

(Q) Field: outcome | Entry: CCOC(=O)C(=Cc1ccccc1Br)C(=O)OCC
(A) 0

(Q) Recorded call for Cc1cc([N+](=O)[O-])c(C)c2c1[nH]c1ccc(Cl)cc12 ?
(A) 0

(Q) Lab log entry: CC(Oc1ccc(OCC2CCCCC2)cc1)C(=O)N(CCO)CCO (centres undefined) — outcome as called in the assay?
(A) 0

---

System: OVCAR-3
assay.comment: NCI tumour cell line growth inhibition, 48 h
The source made the active and inactive calls. Rule as the data show it: active = GI50 up to about 1.1 µM and inactive = higher.
Valid outcomes are listed here; reply with one: class 1 for active, class 0 for inactive

compound	label.value
COc1cc(NS(C)(=O)=O)ccc1NCc1c[nH]c2ccc3nc(C)ccc3c12	class 0
CC(=O)CSc1c(-c2ccccc2)c(=O)n(-c2ccccc2)c(=S)n1-c1ccccc1	class 0
CC[C@@]1(O)C(=O)OCc2c1cc1n(c2=O)Cc2c-1nc1ccccc1c2/C=N\NC(=O)C(N)CO (some centres not stated)	class 0
O=[N+]([O-])c1cc2c([N+](=O)[O-])cccc2o1	class 0
COc1ccc(C(CC(C)=O)c2c(O)c3ccccc3oc2=O)cc1OC (configuration not stated)	class 0
FC(F)(F)C1(C(F)(F)F)OC(Cl)(Cl)C(Cl)(Cl)O1	class 0

(Q) Kindly provide the recorded test outcome for the following compound: CCN(C(=O)/C=C/c1ccco1)c1ccccc1
(A) class 0

(Q) Status in this test for FC(F)(F)c1nc2nc(Cl)c(Cl)nc2n1CCCN1CCOCC1 ?
(A) class 0

(Q) Please state the recorded outcome for this compound: COc1cc2oc3cc(=O)cc4oc(-c5ccccc5)cc(c2c2c1CCC(c1ccccc1)O2)c43 (configuration not stated)
(A) class 0

(Q) How was CC(=O)c1ccc2c(c1)CC1(C2)Cc2cc3c(cc2C1)C(=O)CC3 (configuration not stated) classified in this test?
(A) class 1

(Q) Which outcome was entered for the compound COC(=O)C(C(=O)OC)C1CCCC(=O)C1 (configuration not stated) in this test?
(A) class 0

(Q) How did this test come out for CCN(CC)CCNc1ccc2nnn3c4ccc(OC(C)=O)cc4c(=O)c1c23 ?
(A) class 0
